meta.source: patent US6413938B1

Entries and their melting point values follow.
Measurement type: melting point

> print(dat)
                            chemical.smiles  measurement.type  value.observed
1  CC(=O)O[C@@H]1[C@H](OC(C)=O)[C@@H](C)O[C@H]1n1c(Br)nc2c(Br)c(Cl)c(Cl)cc21     melting point   152 to 154 °C
2  CC(=O)O[C@@H]1[C@H](OC(C)=O)[C@@H](C)O[C@H]1n1c(Br)nc2c(Cl)c(Cl)c(Cl)cc21     melting point   160 to 162 °C
3  C[C@H]1O[C@H](n2c(Cl)nc3cc(Cl)c(Cl)cc32)[C@@H](O)[C@H]1O     melting point   120 to 122 °C
4  CC(C)Nc1nc2cc(F)c(F)c(F)c2n1[C@@H]1O[C@H](C)[C@@H](O)[C@H]1O     melting point   175 to 178 °C
5  CC(C)Nc1nc2c(F)c(F)c(F)cc2n1[C@@H]1O[C@H](C)[C@@H](O)[C@H]1O     melting point   148 to 151 °C

====

Entries and their melting point values follow.
Measurement type: melting point

> print(dat)
                                   compound  measurement.type  value.observed
1  CC(=O)O[C@@H]1[C@H](OC(C)=O)[C@@H](C)O[C@H]1n1c(Cl)nc2c(Cl)c(Cl)c(Cl)cc21 [Example 68]     melting point   126 to 127 °C
2  C[C@H]1O[C@@H](n2c(Br)nc3cc(Cl)c(Cl)cc32)[C@H](O)[C@@H]1O (hydrate or solvate) [Example 4]     melting point   133 to 135 °C
3  C[C@H]1O[C@@H](n2c(Br)nc3cc(Cl)c(Cl)cc32)[C@H](O)[C@@H]1O [Example 73]     melting point   145 to 148 °C
4  CC(=O)O[C@@H]1[C@H](OC(C)=O)[C@@H](C)O[C@H]1n1c(Cl)nc2c(Br)c(Cl)c(Cl)cc21 [Example 70]     melting point   138 to 141 °C
